Numbers sourced from PubChem BioAssay AID1159580.

Consider the following molecules; for each one, report its normalized growth.
Experiment: chemical genetic growth profiling, strain panel (AID 1159580);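 note: tested at 20 µM; growth read once vehicle control cultures reached saturation at 30 °C; 1 = growth at the plate median or of vehicle wells; lower values mean less growth of the strain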
Details: S. cerevisiae deletion strains, growth OD, locus YAL021C, strain ccr4, stronger effect = lower value
The whole screen tested about 5,500 compounds, of which about 2,000 (36%) were called active. Inconclusive results (about 18%) are left out. The list shows a part of the results.

Assign normalized growth to the following record: C=C1C2CC[C@@]3(C)[C@H](c4ccoc4)OC(=O)C[C@]13O[C@H]1CC(=O)C(C)(C)[C@H](C(OC(C)=O)C(=O)OC)[C@@]21C (some centres not stated)
1 (inactive)

Give the reported normalized growth for this molecule. `O=c1c(-c2ccc(O)cc2)coc2cc(O)ccc12`
0.996 (inactive)

Identify normalized growth associated with the molecule `COc1ccc(-c2coc3cc(O)ccc3c2=O)c(OC)c1O`
0.979 (inactive)

Answer with reported normalized growth of COc1ccc(OC)c(C(O)CNC(=O)CN)c1 (configuration not stated)
0.984 (inactive)

Please report normalized growth for the following molecule: `CC[C@@]1(O)C[C@H](O)c2c(cc3c(c2O)C(=O)c2c(O)ccc(O)c2C3=O)[C@H]1C(=O)OC`
0.768 (active)

Supply normalized growth value. Item: `CC(=O)Oc1cc(OC(C)=O)c2c(c1)O[C@H](c1ccc(OC(C)=O)c(OC(C)=O)c1)[C@@H](OC(C)=O)C2`
1 (inactive)

// Input: `O=C(Oc1cc(O)cc2c1C[C@@H](OC(=O)c1cc(O)c(O)c(O)c1)[C@@H](c1cc(O)c(O)c(O)c1)O2)c1cc(O)c(O)c(O)c1` . Output its normalized growth only.
1.01 (inactive)

----------
Test: chemical genetic growth profiling, strain panel (AID 1159580);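 note: tested at 20 µM; growth read once vehicle control cultures reached saturation at 30 °C; 1 = growth at the plate median or of vehicle wells; lower values mean less growth of the strain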
Conditions: S. cerevisiae deletion strains, growth OD, locus YAL021C, strain ccr4, stronger effect = lower value
About 2,000 (36%) of roughly 5,500 compounds were called active. Inconclusive results (about 18%) are left out. Some of the results follow.
ENDPOINT NAME: normalized growth

Output measured normalized growth for this item: CC1COc2c(N3CCN(C)CC3)c(F)cc3c(=O)c(C(=O)O)cn1c23 (stereo unspecified)
0.99 (inactive)

Identify measured normalized growth corresponding to `O=C(c1ccc(OCCN2CCCCC2)cc1)c1c(-c2ccc(O)cc2)sc2cc(O)ccc12`
0.971 (inactive)

Give recorded normalized growth. `COc1ccc(CN(CCN(C)C)c2ccccn2)cc1`
1.01 (inactive)

Quick one: give measured normalized growth for CO/N=C1/CN(c2nc3c(cc2F)c(=O)c(C(=O)O)cn3C2CC2)CC1CN (stereo unspecified)
1 (inactive)

Give the measured normalized growth for `CN(C)CCN(Cc1ccccc1)c1ccccn1`
1.01 (inactive)

Report normalized growth for `Nc1ncn[nH]1`
0.986 (inactive)

Give normalized growth for the following compound: `COc1ccc2c(c1)OC/C(=C\c1ccc(OC)c(O)c1)C2=O`
0.985 (inactive)

Return normalized growth (reported value) for this compound: COc1ccc(C(CN(C)C)C2(O)CCCCC2)cc1 (stereo unspecified)
0.976 (inactive)

Identify the reported normalized growth for the following entry. `CN1CC(=O)N=C1N`
1.01 (inactive)

Report normalized growth for COC(=O)C[C@H]1C2(C)CC34OC5(C)O[C@@]6([C@H](OC(C)=O)C(OC(C)=O)[C@]7(C)C(/C(=C(/O)C(C)C)C(=O)O[C@H]7c7ccoc7)[C@@]6(O5)[C@H](OC(C)=O)[C@@]3(O)C2OC(=O)C(C)C)[C@]14C (stereo partly specified)
1.01 (inactive)

Output normalized growth of `OCCc1ccccc1`
0.971 (inactive)
